Test system: Torsin-1A (Homo sapiens)
Assay explanation: torsin A binders from cell lysate, primary screen, small-molecule microarray, wild-type, 635/667 nm (AID 1149)
Condition notes: COS7 hTOR1A-WT lysate, 635 nm fluorescence, higher = more signal
Respond with yes (1) for composite z-score values of 0.2 and above, no (0) for values below.

{"Compound": "[N-]=[N+]=NCc1ccccc1C[C@]1(C(=O)NCCN2CCOCC2)N=C(c2ccc(OCCCO)cc2)O[C@H]1c1ccccc1N=[N+]=[N-]", "Answer label": "yes (1)"}
{"Compound": "CC(C)C[C@@H]1NC(=O)[C@H]2C[C@@H](C(=O)NCCCCCCNC(=O)CS)[C@@H](c3cccc(OCCO)c3)N2C1=O", "Answer label": "yes (1)"}
{"Compound": "COCCOC(=O)N1C(=O)[C@@]2(c3cc(C#CC4=CCCCC4)ccc31)[C@H](C(=O)NC[C@H](O)c1ccccc1)[C@H]1C(=O)O[C@H](c3ccccc3)[C@H](c3ccccc3)N1[C@@H]2c1ccc(O)cc1", "Answer label": "yes (1)"}
{"Compound": "C=C(CCCC)/C(=C/C[C@H](OC(C)=O)c1ccc(CO)o1)c1cnc2ccccc2c1", "Answer label": "yes (1)"}
{"Compound": "O=C1OCC=C[C@H]2OC34C=CCN(c5ccc6ccccc6c5)C(=O)[C@H]3N(CCCO)C(=O)[C@@H]4[C@@H]12 (stereo partly drawn)", "Answer label": "no (0)"}
{"Compound": "[N-]=[N+]=NCc1ccccc1C[C@]1(C(=O)NCC(O)CO)N=C(c2ccc(OCCCO)cc2)O[C@H]1c1ccccc1N=[N+]=[N-] (stereo partly drawn)", "Answer label": "yes (1)"}
{"Compound": "O=C1N(CCS(=O)(=O)c2ccccc2)Cc2ccccc2C[C@]12N=C(c1ccc(OCCCO)cc1)O[C@@H]2c1ccccc1", "Answer label": "yes (1)"}
{"Compound": "[N-]=[N+]=NCc1ccccc1C[C@@]1(C(=O)N2CCOCC2)N=C(c2ccc(OCCCO)cc2)O[C@@H]1c1ccccc1CN=[N+]=[N-]", "Answer label": "yes (1)"}
{"Compound": "CCOC(=O)C[C@H]1[C@H](OC(=O)c2ccccc2-c2ccccc2)[C@@H](NC(=O)c2ccc3ccccc3c2)c2cc(OCCCO)ccc2N1C(=O)c1ccc2ccccc2n1", "Answer label": "yes (1)"}
{"Compound": "Cc1ccc(S[C@]2(C(=O)NC3CC3)CC(=O)N(C3CCCCC3)[C@@H]2c2ccc(CO)cc2I)cc1", "Answer label": "yes (1)"}
{"Compound": "COc1ccc(NN2C(C(O)c3ccc(OC)c(OCc4ccccc4)c3)C=CC3C(=O)N(C4CCCCC4)C(=O)C32)cc1 (stereo not drawn)", "Answer label": "no (0)"}
{"Compound": "COc1cc(C(O)C2C=CC3C(=O)N(c4ccccc4)C(=O)C3N2Nc2ccc(C#N)cc2)cc(OC)c1OC (stereo not drawn)", "Answer label": "yes (1)"}
{"Compound": "C=CCOC(=O)[C@@H]1[C@H]2C(=O)O[C@H](c3ccccc3)[C@H](c3ccccc3)N2[C@H](c2ccc(OCCOC(=O)[C@@H]3C[C@@H]4C(=O)NCC(=O)N4[C@@H]3c3cccc(OCCO)c3)cc2)[C@@]12C(=O)Nc1ccc(I)cc12", "Answer label": "yes (1)"}
{"Compound": "NC(=O)NCC#Cc1ccc2c(c1)[C@]1(C(=O)N2)[C@H](C(=O)N2CCCCCCC2)[C@H]2C(=O)O[C@H](c3ccccc3)[C@H](c3ccccc3)N2[C@@H]1c1ccc(OCCO)cc1", "Answer label": "yes (1)"}
{"Compound": "CCOC(=O)C1=CCC(c2ccc(C#N)cc2)N(S(=O)(=O)c2ccc(C)cc2)C1 (stereo not drawn)", "Answer label": "yes (1)"}
{"Compound": "CCOc1cc(C(O)C2C=CC3C(=O)N(c4ccccc4)C(=O)C3N2Nc2ccc([N+](=O)[O-])cc2)ccc1O (stereo not drawn)", "Answer label": "no (0)"}
{"Compound": "CN1C(=O)C2C(C1=O)C1C=C(CCCO)C2C(c2cccs2)N1C (stereo not drawn)", "Answer label": "no (0)"}
{"Compound": "CC(C)C[C@@H]1NC(=O)[C@H]2C[C@@H](C(=O)NCCCCCNC(=O)CS)[C@@H](c3cccc(OCCO)c3)N2C1=O", "Answer label": "yes (1)"}
{"Compound": "COC(=O)c1ccc(C(O)C2C=CC3C(=O)N(C)C(=O)C3N2NC(=O)OC(C)(C)C)o1 (stereo not drawn)", "Answer label": "yes (1)"}
{"Compound": "COC(=O)[C@@]1(Cc2ccc(OC)cc2)[C@H]2c3cc(C(=O)N4CCCC4)n(Cc4ccccn4)c3C[C@H]2CN1C(=O)c1ccccc1", "Answer label": "no (0)"}
{"Compound": "CCOC(=O)C1=CCC(c2ccc([N+](=O)[O-])cc2)N(S(=O)(=O)c2ccc(C)cc2)C1 (stereo not drawn)", "Answer label": "yes (1)"}
{"Compound": "C=CC[C@@]1(C(=O)O)N=C(c2ccc(OCCCO)cc2)O[C@@H]1c1ccccc1N=[N+]=[N-]", "Answer label": "no (0)"}
{"Compound": "COc1cc2c(cc1OC)CN(C(=O)[C@@H]1[C@H]3C(=O)O[C@H](c4ccccc4)[C@H](c4ccccc4)N3[C@H](c3ccccc3OCCO)[C@@]13C(=O)Nc1ccc(C#CCNC(N)=O)cc13)CC2", "Answer label": "yes (1)"}
{"Compound": "CCOC(=O)C[C@H]1[C@H](OC(=O)Cc2ccc3c(c2)OCO3)[C@@H](NC(=O)c2ccc(-c3ccccc3)cc2)c2cc(OCCCO)ccc2N1C(=O)c1ccccc1", "Answer label": "yes (1)"}
{"Compound": "COc1ccc(C(O)C2C=CC3C(=O)NC(=O)C3N2Nc2ccccn2)cc1OCc1ccccc1 (stereo not drawn)", "Answer label": "no (0)"}
{"Compound": "CC(C)C(=C=CC[C@H](O)c1ccccc1OCCO)C[C@H](O)c1ccccn1", "Answer label": "yes (1)"}
{"Compound": "O=C1O[C@H](c2ccccc2)[C@H](c2ccccc2)N2[C@H]1[C@@H](C(=O)O)[C@]1(C(=O)Nc3ccc(C#CC4=CCCCC4)cc31)[C@H]2c1ccc(OCCO)cc1", "Answer label": "yes (1)"}
{"Compound": "[N-]=[N+]=NCc1ccccc1[C@@H]1OC(c2ccc(OCCCO)cc2)=N[C@]1(Cc1ccccc1)C(=O)N1CCCCC1", "Answer label": "no (0)"}
